# measured-on: UniProt Q06124
# Sequence (Q06124 whole entry): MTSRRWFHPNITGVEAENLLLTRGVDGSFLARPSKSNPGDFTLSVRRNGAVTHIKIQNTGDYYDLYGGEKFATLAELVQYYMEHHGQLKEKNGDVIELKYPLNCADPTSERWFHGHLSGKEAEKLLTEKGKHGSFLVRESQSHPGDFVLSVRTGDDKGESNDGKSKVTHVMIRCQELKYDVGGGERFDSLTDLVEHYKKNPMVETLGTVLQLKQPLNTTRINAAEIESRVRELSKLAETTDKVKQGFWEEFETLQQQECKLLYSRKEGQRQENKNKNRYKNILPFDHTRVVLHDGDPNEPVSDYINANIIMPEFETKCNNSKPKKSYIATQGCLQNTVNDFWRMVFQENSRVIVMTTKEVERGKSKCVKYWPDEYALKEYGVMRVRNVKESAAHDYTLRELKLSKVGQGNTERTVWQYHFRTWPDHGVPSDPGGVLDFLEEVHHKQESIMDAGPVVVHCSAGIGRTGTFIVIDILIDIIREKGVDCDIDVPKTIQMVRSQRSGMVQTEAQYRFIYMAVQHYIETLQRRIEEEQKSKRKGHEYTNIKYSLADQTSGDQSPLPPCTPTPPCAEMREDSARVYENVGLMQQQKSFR
# assay-text: Inhibition of recombinant human phosphatase (SHP-2) at a concentration of 100 uM
Returns one of 1.0 or 0.0; 1.0 when inhibition is >= 10%.

>  <mol>
CCCCCNC(=O)[C@H](Cc1ccc(OC(C(=O)O)C(=O)O)cc1)NC(=O)[C@H](Cc1ccccc1)NS(C)(=O)=O

>  <class-label>
0.0

$$$$
>  <mol>
CCCCCNC(=O)[C@H](Cc1ccc(OC(C(=O)O)C(=O)O)cc1)NC(=O)[C@H](Cc1ccc2ccccc2c1)NC(=O)OC(C)(C)C

>  <class-label>
0.0

$$$$
>  <mol>
CCCCCNC(=O)[C@H](Cc1ccc(OC(C(=O)O)C(=O)O)cc1)NC(=O)[C@H](Cc1ccccc1)NC(=O)CCN(CC)CC

>  <class-label>
1.0

$$$$
>  <mol>
CCCCCNC(=O)[C@H](Cc1ccc(OCC(=O)O)c(C(=O)O)c1)NC(=O)[C@H](Cc1ccccc1)NC(=O)Cc1ccc(O)cc1

>  <class-label>
1.0

$$$$
>  <mol>
CCCCCNC(=O)[C@H](Cc1ccc(OC(C(=O)O)C(=O)O)cc1)NC(=O)[C@H](COCc1ccccc1)NC(=O)OC(C)(C)C

>  <class-label>
0.0

$$$$
>  <mol>
CCCCCNC(=O)[C@H](Cc1ccc(OCC(=O)O)c(C(=O)O)c1)NC(=O)[C@H](Cc1ccccc1)NC(=O)Oc1ccccc1

>  <class-label>
1.0

$$$$
>  <mol>
CCCCCNC(=O)[C@H](Cc1ccc(OCC(=O)O)c(C(=O)O)c1)NC(=O)[C@H](Cc1ccccc1)NC(=O)Cc1ccc(OC)cc1

>  <class-label>
1.0

$$$$
>  <mol>
CCCCCNC(=O)[C@H](Cc1ccc(OC(C(=O)O)C(=O)O)cc1)NC(=O)[C@H](CC1CCCCC1)NC(=O)OC(C)(C)C

>  <class-label>
0.0

$$$$
>  <mol>
CCCCCNC(=O)[C@H](Cc1ccc(OC(C(=O)O)C(=O)O)cc1)NC(=O)[C@H](Cc1c(F)c(F)c(F)c(F)c1F)NC(=O)OC(C)(C)C

>  <class-label>
0.0

$$$$
>  <mol>
CCCCCNC(=O)[C@H](Cc1ccc(OCC(=O)O)c(C(=O)O)c1)NC(=O)[C@H](Cc1ccccc1)NC(=O)CSc1c[nH]nn1

>  <class-label>
0.0

$$$$
>  <mol>
CCCCCNC(=O)[C@H](Cc1ccc(OCC(=O)O)c(C(=O)O)c1)NC(=O)[C@H](Cc1ccccn1)NC(=O)OC(C)(C)C

>  <class-label>
0.0

$$$$
>  <mol>
CCCCCNC(=O)[C@H](Cc1ccc(OC(C(=O)O)C(=O)O)cc1)NC(=O)[C@H](Cc1c[nH]c2ccccc12)NC(=O)OC(C)(C)C

>  <class-label>
0.0

$$$$
>  <mol>
CCCCCNC(=O)[C@H](Cc1ccc(OC(C(=O)O)C(=O)O)cc1)NC(=O)[C@H](C)NC(=O)OC(C)(C)C

>  <class-label>
0.0

$$$$

----------
# measured-on: Receptor-type tyrosine-protein phosphatase F (Homo sapiens) (UniProt P10586)
# Sequence (P10586 whole entry): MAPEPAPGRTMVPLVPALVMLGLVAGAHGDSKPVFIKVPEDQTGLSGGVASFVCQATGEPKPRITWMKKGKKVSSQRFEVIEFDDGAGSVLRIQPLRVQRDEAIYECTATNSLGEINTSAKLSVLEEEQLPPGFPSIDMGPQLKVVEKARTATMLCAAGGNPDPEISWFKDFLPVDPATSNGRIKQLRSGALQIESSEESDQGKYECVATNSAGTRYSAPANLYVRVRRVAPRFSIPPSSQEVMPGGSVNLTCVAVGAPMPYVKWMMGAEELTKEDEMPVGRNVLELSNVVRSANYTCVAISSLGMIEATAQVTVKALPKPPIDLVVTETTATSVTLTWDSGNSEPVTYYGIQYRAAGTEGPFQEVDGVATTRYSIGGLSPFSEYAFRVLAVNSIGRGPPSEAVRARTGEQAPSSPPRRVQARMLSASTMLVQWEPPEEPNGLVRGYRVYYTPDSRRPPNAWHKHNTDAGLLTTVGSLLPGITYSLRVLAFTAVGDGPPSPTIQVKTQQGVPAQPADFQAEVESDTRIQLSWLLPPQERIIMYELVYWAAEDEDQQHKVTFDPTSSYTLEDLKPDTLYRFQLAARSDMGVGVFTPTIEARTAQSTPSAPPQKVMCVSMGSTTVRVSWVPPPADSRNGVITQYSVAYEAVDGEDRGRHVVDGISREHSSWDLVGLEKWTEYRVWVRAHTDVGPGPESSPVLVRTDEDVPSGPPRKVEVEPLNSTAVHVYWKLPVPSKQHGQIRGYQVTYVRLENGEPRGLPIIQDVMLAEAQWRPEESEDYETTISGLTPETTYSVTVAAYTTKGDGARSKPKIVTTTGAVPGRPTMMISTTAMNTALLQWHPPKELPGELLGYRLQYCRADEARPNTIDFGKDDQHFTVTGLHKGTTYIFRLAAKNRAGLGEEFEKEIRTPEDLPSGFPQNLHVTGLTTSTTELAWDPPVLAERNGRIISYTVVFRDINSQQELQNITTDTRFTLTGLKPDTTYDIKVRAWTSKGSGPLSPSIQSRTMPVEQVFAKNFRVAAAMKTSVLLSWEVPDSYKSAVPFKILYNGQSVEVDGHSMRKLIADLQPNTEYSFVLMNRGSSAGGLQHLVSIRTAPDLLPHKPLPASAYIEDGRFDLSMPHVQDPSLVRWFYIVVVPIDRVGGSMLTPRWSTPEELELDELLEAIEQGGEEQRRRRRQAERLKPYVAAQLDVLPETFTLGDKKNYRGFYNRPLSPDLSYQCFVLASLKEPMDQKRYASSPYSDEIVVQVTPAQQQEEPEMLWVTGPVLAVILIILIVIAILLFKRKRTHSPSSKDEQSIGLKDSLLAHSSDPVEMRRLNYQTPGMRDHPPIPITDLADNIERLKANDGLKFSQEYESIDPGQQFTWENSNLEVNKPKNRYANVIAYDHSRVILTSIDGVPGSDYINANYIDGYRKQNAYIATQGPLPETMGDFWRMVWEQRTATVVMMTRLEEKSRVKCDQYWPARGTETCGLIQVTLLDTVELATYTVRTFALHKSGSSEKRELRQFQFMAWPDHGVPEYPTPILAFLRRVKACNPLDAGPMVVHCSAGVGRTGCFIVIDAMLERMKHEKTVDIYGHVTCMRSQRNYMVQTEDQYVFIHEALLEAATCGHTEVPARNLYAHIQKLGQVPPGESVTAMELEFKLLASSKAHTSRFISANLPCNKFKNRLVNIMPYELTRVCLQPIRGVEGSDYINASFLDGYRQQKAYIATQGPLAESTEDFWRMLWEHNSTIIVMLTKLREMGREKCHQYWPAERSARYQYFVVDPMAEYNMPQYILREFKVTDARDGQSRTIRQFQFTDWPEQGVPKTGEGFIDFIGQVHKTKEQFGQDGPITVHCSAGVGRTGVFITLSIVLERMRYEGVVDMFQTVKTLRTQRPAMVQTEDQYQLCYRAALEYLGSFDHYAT
# assay-text: Inhibitory activity against phosphatase (LAR) at a concentration of 100 uM
inhibition overview

>  <molecule>
CCCCCNC(=O)[C@H](Cc1ccc(OCC(=O)O)c(C(=O)O)c1)NC(=O)[C@H](Cc1ccccc1)NC(=O)CCNC(=O)OC(C)(C)C

>  <display-unit>
%

>  <inhibition>
0

$$$$
>  <molecule>
CCCCCNC(=O)[C@H](Cc1ccc(OCC(=O)O)c(C(=O)O)c1)NC(=O)[C@H](Cc1ccccc1)NC(=O)Cc1cccc(O)c1

>  <display-unit>
%

>  <inhibition>
6

$$$$
>  <molecule>
CCCCCNC(=O)[C@H](Cc1ccc(OCC(=O)O)c(C(=O)O)c1)NC(=O)[C@H](CCO)NC(=O)OC(C)(C)C

>  <display-unit>
%

>  <inhibition>
0

$$$$
>  <molecule>
CCCCCNC(=O)[C@H](Cc1ccc(OCC(=O)O)c(C(=O)O)c1)NC(=O)[C@H](Cc1ccccc1)NC(=O)C[S+]([O-])c1nc[nH]n1 (some centres not stated)

>  <display-unit>
%

>  <inhibition>
0

$$$$
>  <molecule>
CCCCCNC(=O)[C@H](Cc1ccc(OCC(=O)O)c(C(=O)O)c1)NC(=O)[C@H](Cc1ccccc1)NC(=O)Cn1nnnc1S

>  <display-unit>
%

>  <inhibition>
0

$$$$
>  <molecule>
CCCCCNC(=O)[C@H](Cc1ccc(OCC(=O)O)c(C(=O)O)c1)NC(=O)[C@H](Cc1ccccc1)NC(=O)Cc1ccc(C)cc1

>  <display-unit>
%

>  <inhibition>
6

$$$$
>  <molecule>
CCCCCNC(=O)[C@H](Cc1ccc(OCC(=O)O)c(C(=O)O)c1)NC(=O)[C@H](Cc1ccccc1)NC(=O)Cc1ccc(O)cc1

>  <display-unit>
%

>  <inhibition>
7

$$$$
